System: MALME-3M melanoma
Test: NCI tumour cell line growth inhibition, 48 h
Property: TGI; scope: individual compounds

Some compounds with recorded TGI:
compound	reported.endpoint	reported
CN(O)C(=O)SCC(NC(=O)CCC(N)C(=O)O)C(=O)NCC(=O)O (centres undefined)	TGI	> 2000 µM
COC(=O)C1=C(C)C(=O)[C@]23C(CCCC[C@H]12)C(=O)[C@H](C(=O)OC)C3C (some centres undefined)	TGI	> 100 µM

Exam item: What value of TGI has been recorded for this entry: COc1cc(C(=O)/C=C/c2ccc(OCC#N)cc2)cc(OC)c1OC
Marked response: 33 µM

Exam item: Try this compound too: O=C(O)c1cc(CC2Cc3cc4c(cc3C2=O)CCC4)cc2c1CCC2 (centres undefined)
Marked response: > 100 µM

Exam item: Record: CC[C@@]1(O)C(=O)OCc2c1cc1n(c2=O)Cc2c-1nc1ccccc1c2/C=N\NC(=O)C(N)CO (some centres undefined)
Marked response: > 100 µM

---

// values below are reported TGI
Tested on: KM20L2 colon
Experiment: NCI tumour cell line growth inhibition, 48 h

Exam item: Item under review: O=C(O)CCC(=O)N1c2ccccc2CC1c1c[nH]c2ccccc12 (centres undefined) . Reported TGI?
Marked response: > 100 µM

Exam item: Next compound up: COC(=O)CC1C[C@H](C#N)N(C(=O)c2ccccc2)C[C@@H]1CC[N+](=O)[O-] (some centres undefined)
Marked response: > 100 µM

Exam item: # repeat for COC(=O)NC(=O)c1cn(C2OC(CO)C(O)C2O)c(=O)[nH]c1=O (centres undefined)
Marked response: > 100 µM

Exam item: Again, but for O=C(COc1ccc(Cl)cc1)N1N=C(c2ccc(Cl)cc2)CC1(O)c1ccccc1 (centres undefined)
Marked response: > 50.9 µM

---

Tested on: SNB-19 CNS
Test: NCI tumour cell line growth inhibition, 48 h
# Lookup of reported TGI keyed by entry

Reference set (2 entries):
In [3]: df
Out[3]:
                                 mol_smiles  reported_endpoint  reported
0  O=c1c2ccccc2nc(-c2cc3c(cc2Cl)Sc2nccn2S3(=O)=O)n1-c1ccccc1                TGI  > 100 µM
1  CC(=O)c1ccc2c(c1)c1c(C)c3c[n+](C)ccc3c(C)c1n2C                TGI   5.74 µM

Note: attention shifts to another entry.
Exam item: I'd like to know its TGI. The molecule in question is COc1cccc(N2CCN(CC(=O)N3CCN(c4nnc(-c5ccc(Cl)cc5)c(-c5ccc(Cl)cc5)n4)CC3)CC2)c1
Marked response: > 100 µM

---

Test system: SNB-19 CNS
Assay: NCI tumour cell line growth inhibition, 48 h
reported.endpoint: TGI

molecule	reported
O=C1C(Cl)=C(Nc2cccc(F)c2)C(=O)N1Cc1ccc(Cl)cc1	16.1 µM
CC[C@@]1(O)C(=O)OCc2c1cc1n(c2=O)Cc2c-1nc1ccccc1c2/C=N\NC(=O)C(N)CO (some centres not stated)	> 100 µM
Cc1ccc(NCC(=O)N2CC(=O)Nc3ccccc32)c(C)c1	> 100 µM
COc1ccc(CCCCl)c(C2=NCCc3cc(OC)c(OC)cc32)c1	> 100 µM
O=S1(=O)OCCOS(=O)(=O)C1S(=O)(=O)c1ccc2ccccc2c1	> 100 µM
CCN1CCC(O)(c2ccc(Oc3ccccc3)cc2)C(C(=O)c2ccc(Oc3ccccc3)cc2)C1 (configuration not stated)	32.6 µM
O=c1cc(-c2ccccc2)[nH]c2ccc(N3CCOCC3)cc12	> 87.5 µM
C=CCOc1cc(NC(=S)c2ccoc2C)ccc1OC	> 100 µM
Cc1c[n+](=O)c2ccccc2n1[O-]	> 100 µM
O=C(COc1ccc(Cl)cc1)N1N=C(c2ccc(Cl)cc2)CC1(O)c1ccccc1 (configuration not stated)	> 100 µM

Exam item: Requested field: TGI. Item: O=C(O)Cc1c(-c2ccc([N+](=O)[O-])cc2)c(=O)oc2cc(O)ccc12
Marked response: > 100 µM

Exam item: Now try [N-]=[N+]=NC(CCl)c1cn([C@H]2C[C@H](O)[C@@H](CO)O2)c(=O)[nH]c1=O (some centres not stated) .
Marked response: > 100 µM

Exam item: Could you do the same for CC1=C(C(=O)Nc2cc(=O)n(C)c(=O)n2C)C(c2ccco2)C(C(=O)Nc2cc(=O)n(C)c(=O)n2C)=C(C)N1 , please?
Marked response: > 100 µM

Exam item: Next entry: OCCOCCN1CCN(CCCN2c3ccccc3Sc3ccc(C(F)(F)F)cc32)CC1
Marked response: 27.8 µM

Exam item: Follow-up item: COC(=O)NC(=O)c1cn(C2OC(CO)C(O)C2O)c(=O)[nH]c1=O (configuration not stated)
Marked response: > 100 µM

Exam item: Now this one: ClCc1cccc2c(CCl)cccc12
Marked response: 19.7 µM

Exam item: Now the same for CN1CC[C@]23c4c5ccc(O)c4O[C@H]2C(O)CC[C@@]3(O)[C@H]1C5 (some centres not stated)
Marked response: > 100 µM

Exam item: And the next one, CN1CCN(C(=S)N(C(=O)c2ccc(Cl)cc2)c2ccccc2)CC1 ?
Marked response: > 100 µM

Exam item: # iterate: COC(=O)C1=C(C)NC(C)=C(C(=O)OC)C1c1ccccc1NO
Marked response: > 100 µM

Exam item: For O/N=C1/C(=C/c2ccc3c(c2)OCO3)CCCC1C(NO)c1ccc2c(c1)OCO2 (configuration not stated) then?
Marked response: > 100 µM

Exam item: Request: NC(=O)C(=O)N/N=C1\C(=O)N(c2ccc(Cl)cc2Cl)C(=O)C1C(=O)Nc1ccc(Cl)cc1Cl (configuration not stated)
Marked response: > 100 µM

Exam item: And for N#CC(C#N)=C1c2ccccc2C(=NN)c2ccccc21 ?
Marked response: > 100 µM

---

System: MDA-MB-231 breast
Experiment: NCI tumour cell line growth inhibition, 48 h
reported.endpoint: TGI

Example cases with answers are listed next.
>>> print(df.to_string())
                                   molecule  reported
0  OC(Cc1ccncc1)C(Cl)(Cl)Cl (stereo unspecified)  > 100 µM
1  O=C1C(Cl)=C(Nc2cccc(Cl)c2)C(=O)N1Cc1ccc(Cl)cc1   1.22 µM
2  CC(=O)N1C(OC(C)C)CC(C)N1c1ccccc1 (stereo unspecified)   > 10 µM

Exam item: Query (molecule): CC(=O)OC/C=C/[C@H](O[Si](C)(C)C(C)(C)C)[C@@H](O)/C=C/COC(C)=O ; field requested: TGI
Marked response: > 100 µM

Exam item: Thanks! And CC(C)Oc1c(O)c2c3c(oc(=O)n3C=CC2c2ccccc2)c1OC(C)C (stereo unspecified) ?
Marked response: > 100 µM

Exam item: Then what about the molecule COC(=O)C1=C(C)NC(C)=C(C(=O)OC)C1c1ccccc1NO ?
Marked response: > 100 µM

Exam item: NS(=O)(=O)c1ccc(-n2nc(-c3ccc(Cl)cc3)cc2-c2cc(O)ccc2O)cc1 , same question.
Marked response: 13.9 µM

Exam item: Continue with O=C1Nc2ccccc2C1=Nc1cccc2ncccc12
Marked response: > 100 µM

Exam item: Now try COc1cc(C=O)cc(/C=N/n2c3ccccc3c3ccccc32)c1O .
Marked response: > 100 µM

Exam item: Now this one: C=C1C(=O)O[C@@H]2C[C@@H](C)[C@@H]3C=CC(=O)[C@@]3(C)[C@@H](O)[C@H]12
Marked response: 7.35 µM

Exam item: Please give the result for O=C(c1ccccc1)n1c(Cc2ccccc2)nc2cc(C34CC5CC(CC(C5)C3)C4)ccc21 too.
Marked response: > 100 µM

Exam item: Proceed to c1cncc(C2(c3cc4ccccc4[nH]3)COCO2)c1 (stereo unspecified)
Marked response: > 100 µM

Exam item: Repeat with CN(/N=C/c1cccc2cccnc12)c1ccc([N+](=O)[O-])cc1[N+](=O)[O-]
Marked response: 56.8 µM

Exam item: What would you report for O=c1cc(-c2ccccc2)[nH]c2ccc(N3CCOCC3)cc12 ?
Marked response: > 100 µM

Exam item: Next record, please: CCOC(=O)N1CCN(/[N+]([O-])=N/Oc2ccc([N+](=O)[O-])cc2[N+](=O)[O-])CC1
Marked response: 7.08 µM

Exam item: Also C[C@@]1(O)C[C@@H](N2C(=O)O[C@@H](c3ccccc3)[C@H]2c2ccccc2)[C@@H]1COCc1ccccc1 , if possible.
Marked response: 39.8 µM

Exam item: Entry CC1(C)C2C=C(CCN3CCOCC3)CC1C2 (stereo unspecified) please
Marked response: > 100 µM

Exam item: Same again, this time with N#C[C@@H](c1nc2ccccc2s1)c1ncccc1[N+](=O)[O-]
Marked response: 17.4 µM

Exam item: Can you check CC1(C)CC(C2=NCCO2)CC(C)(C)N1 next?
Marked response: > 100 µM

Exam item: Next record, please: NC(=O)Nc1ccc(S(=O)(=O)Nc2ccc(S(N)(=O)=O)cc2)cc1
Marked response: > 100 µM

Exam item: Note, next up: N=C(N)C1CN(CCCCCCCCCCN2CC(C(=N)N)C(=O)NC2=O)C(=O)NC1=O (stereo unspecified)
Marked response: > 10 µM
